Here the recorded half-life is given for each entry.
Test: Pharmacokinetics after bolus intradermal injection in an adult rat
Type: in vivo
Conditions: rat, in vivo, 0.9 mg, T1/2 half life
Square brackets hold non-standard residues; d marks the D form. Peptide text beside a SMILES is read from it. pGlu = O=C1CC[C@@H](C(=O)O)N1

compound	half-life
NC(=O)CC[C@H](NC(=O)[C@@H]1CCCN1)C(=O)N[C@@H](CCC(N)=O)C(=O)N1CCC[C@H]1C(=O)N[C@@H](Cc1ccccc1)C(=O)N1CCC[C@H]1C(=O)N[C@@H](CCC(N)=O)C(=O)N1CCC[C@H]1C(=O)N[C@@H](CCC(=O)O)C(=O)N[C@@H](CCC(N)=O)C(=O)N1CCC[C@H]1C(=O)N[C@@H](Cc1ccccc1)C(=O)N1CCC[C@H]1C(=O)N[C@@H](Cc1c[nH]c2ccccc12)C(=O)N[C@@H](CCC(N)=O)C(=O)N1CCC[C@H]1C(=O)O [NPL038, PQQPFPQPEQPFPWQP] (H-PQQPFPQPEQPFPWQP-OH)	10 to 12 min

For NC(=O)CC[C@H](NC(=O)[C@H](Cc1c[nH]c2ccccc12)NC(=O)[C@@H]1CCCN1C(=O)[C@H](Cc1ccccc1)NC(=O)[C@@H]1CCCN1C(=O)[C@H](CCC(N)=O)NC(=O)[C@H](CCC(=O)O)NC(=O)[C@@H]1CCCN1C(=O)[C@H](CCC(N)=O)NC(=O)[C@@H]1CCCN1C(=O)[C@H](Cc1ccccc1)NC(=O)[C@@H]1CCCN1C(=O)[C@H](CCC(N)=O)NC(=O)[C@@H]1CCC(=O)N1)C(=O)N1CCC[C@H]1C(N)=O [NPL002, pyroEQPFPQPEQPFPWQP-amide] ([pGlu]QPFPQPEQPFPWQP-NH2) the compound record lists half-life as 26 to 28 min

For CC(C)C[C@H](NC(=O)[C@H](CCC(=O)O)NC(=O)[C@@H]1CCCN1C(=O)[C@H](CCC(N)=O)NC(=O)[C@@H]1CCCN1C(=O)[C@H](Cc1ccccc1)NC(=O)[C@@H]1CCCN1C(=O)[C@H](CCC(N)=O)NC(=O)[C@@H](N)CC(C)C)C(=O)N1CCC[C@H]1C(=O)N[C@@H](Cc1ccc(O)cc1)C(=O)N1CCC[C@H]1C(=O)N[C@@H](CCC(N)=O)C(=O)N1CCC[C@H]1C(=O)N[C@@H](CCC(N)=O)C(=O)O [NPL033, LQPFPQPELPYPQPQ] (H-LQPFPQPELPYPQPQ-OH) the compound record lists half-life as 10 to 12 min

For CC[C@H](C)[C@H](NC(=O)[C@@H]1CCCN1C(=O)[C@H](CCC(N)=O)NC(=O)[C@H](CCC(=O)O)NC(=O)[C@@H]1CCCN1C(=O)[C@@H](N)Cc1ccccc1)C(=O)N1CCC[C@H]1C(=O)N[C@@H](CCC(=O)O)C(=O)N[C@@H](CCC(N)=O)C(=O)N1CCC[C@H]1C(=O)N[C@@H](CCC(N)=O)C(=O)N1CCC[C@H]1C(=O)N[C@@H](Cc1ccc(O)cc1)C(=O)N1CCC[C@H]1C(=O)N[C@@H](CCC(N)=O)C(=O)N[C@@H](CCC(N)=O)C(=O)O [NPL034, FPEQPIPEQPQPYPQQ] (H-FPEQPIPEQPQPYPQQ-OH) the compound record lists half-life as 10 to 12 min

----------
Assay: Pharmacokinetics after bolus intradermal injection in an adult rat
Type: in vivo
Details: rat, in vivo, 0.9 mg, T1/2 half life
Peptide text beside a SMILES is read from it.
observation.type: half-life

For CC(=O)N[C@@H](CCC(N)=O)C(=O)N[C@@H](CCC(N)=O)C(=O)N1CCC[C@H]1C(=O)N[C@@H](Cc1ccccc1)C(=O)N1CCC[C@H]1C(=O)N[C@@H](CCC(N)=O)C(=O)N1CCC[C@H]1C(=O)N[C@@H](CCC(=O)O)C(=O)N[C@@H](CCC(N)=O)C(=O)N1CCC[C@H]1C(=O)N[C@@H](Cc1ccccc1)C(=O)N1CCC[C@H]1C(=O)N[C@@H](Cc1c[nH]c2ccccc12)C(=O)N[C@@H](CCC(N)=O)C(=O)N1CCC[C@H]1C(N)=O [NPL031, Ac-QQPFPQPEQPFPWQP-amide] (Ac-QQPFPQPEQPFPWQP-NH2) the compound record lists half-life as 19 to 24 min
